Target: T1, CstF-50;CstF-77ΔN;CstF-64RH (Homo sapiens;Homo sapiens;Homo sapiens, UniProt Q05048;Q12996;P33240 1-431;241-717;1-199, |del1-240|)
T1 sequence 1: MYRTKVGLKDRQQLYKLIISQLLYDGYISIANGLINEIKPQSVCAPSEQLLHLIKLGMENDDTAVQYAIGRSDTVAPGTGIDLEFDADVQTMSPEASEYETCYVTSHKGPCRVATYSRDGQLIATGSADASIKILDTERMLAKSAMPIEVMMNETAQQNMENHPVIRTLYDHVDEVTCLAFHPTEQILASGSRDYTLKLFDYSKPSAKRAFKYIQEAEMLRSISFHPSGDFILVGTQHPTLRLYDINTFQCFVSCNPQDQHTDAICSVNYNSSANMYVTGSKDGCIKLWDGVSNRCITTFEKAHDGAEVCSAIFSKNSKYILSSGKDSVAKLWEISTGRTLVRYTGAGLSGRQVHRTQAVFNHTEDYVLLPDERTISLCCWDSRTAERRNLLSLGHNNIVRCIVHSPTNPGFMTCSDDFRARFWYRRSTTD
T1 sequence 2: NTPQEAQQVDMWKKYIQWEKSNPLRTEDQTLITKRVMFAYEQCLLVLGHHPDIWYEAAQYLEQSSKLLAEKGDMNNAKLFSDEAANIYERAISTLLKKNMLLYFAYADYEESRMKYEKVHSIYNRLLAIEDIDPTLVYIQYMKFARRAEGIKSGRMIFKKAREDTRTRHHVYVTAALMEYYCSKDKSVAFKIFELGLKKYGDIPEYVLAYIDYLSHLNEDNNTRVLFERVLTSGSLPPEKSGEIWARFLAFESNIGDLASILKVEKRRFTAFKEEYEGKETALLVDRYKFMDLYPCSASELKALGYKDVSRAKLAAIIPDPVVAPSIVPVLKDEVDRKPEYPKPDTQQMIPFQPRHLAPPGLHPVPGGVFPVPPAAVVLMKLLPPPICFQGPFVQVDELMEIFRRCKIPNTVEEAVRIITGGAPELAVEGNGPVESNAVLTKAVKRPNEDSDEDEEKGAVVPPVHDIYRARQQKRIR
T1 sequence 3: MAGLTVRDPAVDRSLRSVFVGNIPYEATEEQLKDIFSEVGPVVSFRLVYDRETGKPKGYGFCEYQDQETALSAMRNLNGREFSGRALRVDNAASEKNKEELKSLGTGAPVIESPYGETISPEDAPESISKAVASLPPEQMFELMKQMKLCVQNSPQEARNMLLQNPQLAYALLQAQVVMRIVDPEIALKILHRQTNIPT
Assay: ITC

{"binder": "GUGUGUGUGU (ssRNA) [GU10]", "Kd": "~500 nM"}
